# maps each entry to its viability
Test: SK-BR-3 cell growth inhibitors, pilot screen, 24 h, human (AID 572);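 note: compound exposure lasted between 18 and 24 h rather than exactly 24 h; 100% = carrier-treated control wells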
Conditions: SK-BR-3 viability, CellTiter-Glo luminescence, at 10 µM, stronger effect = lower value
The figure you give is taken to be in %; do not add the unit.

Here is how some compounds turned out for viability.
• CCOC(=O)C1=C(C)NC(C)=C(C(=O)OC)C1c1cccc(Cl)c1Cl (configuration not stated) = 86
• CC(=O)Nc1ccn(-c2ccccc2)n1 = 83
• CCn1c(SCC(N)=O)nnc1-c1ccc(S(=O)(=O)N2CCN(C)CC2)cc1 = 97
• Cc1nnc(SCC(=O)NC(C)(C)C)n1CCc1ccccc1 = 93.5
• Cc1occc1C(=O)Nc1nnc(C2CCCCC2)s1 = 109

input: Which viability value is on record for O=C(Nc1ccc2c(c1)OCO2)c1ccc(Br)c(S(=O)(=O)N2CCCC2)c1 ?
output: 98.5

input: What viability value was documented for this compound, Cc1nc2cc(N3CCCCC3)c(NC(=O)c3cccnc3)cc2c(=O)n1Cc1ccccc1 ?
output: 64

input: GET /values?readout=viability&item= O=C(O)CSc1ncn[nH]1
output: 87

input: Please give the measured viability for this compound: COc1ccc(OC)c(NC(=O)CSc2nnc(-c3ccco3)n2-c2ccccc2)c1
output: 59

input: So what's the measured viability for this one? CC1=C(C(=O)Nc2ccccc2C)C(c2ccc(C)o2)N2C(=O)CSC2=N1 (configuration not stated)
output: 105
